# Test system: Plasma
# assayComment: Maximum plasma concentration in healthy human at 400 mg
# Format: ADME
# Design: dose 400 mg
testReadout: Cmax (ng/mL)
Respond with the bare value in ng/mL.

Identify measured Cmax associated with Cc1cccc(C)c1OCC(=O)N[C@@H](Cc1ccccc1)[C@@H](O)C[C@H](Cc1ccccc1)NC(=O)[C@H](C(C)C)N1CCCNC1=O
100

The measurements presented in this section are drawn from ChEMBL document CHEMBL3525974.
